Target: T1, human immunoglobulin E (hIgE) (human, UniProt P01854-1 1-428)
T1 construct: also called human IgE; Native IgE (Abcam)
T1 sequence (P01854 whole entry): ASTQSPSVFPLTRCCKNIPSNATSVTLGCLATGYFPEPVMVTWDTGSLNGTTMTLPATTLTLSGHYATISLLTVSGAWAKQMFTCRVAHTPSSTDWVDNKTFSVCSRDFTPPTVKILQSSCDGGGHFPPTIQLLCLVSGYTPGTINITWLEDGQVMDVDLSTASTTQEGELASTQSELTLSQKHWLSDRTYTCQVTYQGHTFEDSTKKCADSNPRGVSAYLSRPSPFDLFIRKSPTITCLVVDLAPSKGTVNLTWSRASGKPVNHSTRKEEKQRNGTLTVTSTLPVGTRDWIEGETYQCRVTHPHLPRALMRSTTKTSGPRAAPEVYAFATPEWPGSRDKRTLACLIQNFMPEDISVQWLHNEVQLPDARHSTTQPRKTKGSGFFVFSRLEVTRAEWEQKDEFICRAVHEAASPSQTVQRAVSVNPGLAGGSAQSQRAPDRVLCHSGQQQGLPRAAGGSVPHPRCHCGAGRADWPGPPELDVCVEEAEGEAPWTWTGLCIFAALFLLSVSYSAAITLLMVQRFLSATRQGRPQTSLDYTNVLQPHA
Assay: competition ELISA, hIgE to hFcεRIα
READOUT LABEL: pIC50
Scale explanation: pIC50 corresponds to minus log10 of a concentration expressed in moles per litre.

Exercise: Fill in the blank: the reported pIC50 of OMA VH15 - VL3D28H (antibody, V domains shown, also called OMA VH15 VL3D25H) VH: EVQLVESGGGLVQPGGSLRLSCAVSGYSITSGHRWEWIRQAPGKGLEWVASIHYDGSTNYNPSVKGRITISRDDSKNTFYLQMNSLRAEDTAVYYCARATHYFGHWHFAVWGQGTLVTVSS VL: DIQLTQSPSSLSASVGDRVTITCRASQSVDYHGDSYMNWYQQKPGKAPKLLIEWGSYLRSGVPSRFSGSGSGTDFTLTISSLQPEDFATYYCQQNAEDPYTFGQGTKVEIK is ____.
Solution: 9.86

Exercise: Entry to check: OMA VH15 - VL3D28HS31H (antibody, V domains shown) VH: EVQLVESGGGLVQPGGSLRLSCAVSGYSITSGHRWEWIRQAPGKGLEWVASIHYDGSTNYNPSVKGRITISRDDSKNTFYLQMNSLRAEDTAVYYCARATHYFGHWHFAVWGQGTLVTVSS VL: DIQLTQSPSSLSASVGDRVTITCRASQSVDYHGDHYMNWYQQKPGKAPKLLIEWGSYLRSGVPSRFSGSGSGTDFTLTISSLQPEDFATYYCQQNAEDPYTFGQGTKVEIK
Solution: 9.14

Exercise: Also check OmaVH15G55HW100b - VL3D28HS31H (antibody, V domains shown, human IgG1) VH: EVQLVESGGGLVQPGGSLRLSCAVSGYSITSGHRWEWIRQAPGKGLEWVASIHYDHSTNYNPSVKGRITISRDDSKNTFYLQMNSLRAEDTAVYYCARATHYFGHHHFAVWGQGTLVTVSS VL: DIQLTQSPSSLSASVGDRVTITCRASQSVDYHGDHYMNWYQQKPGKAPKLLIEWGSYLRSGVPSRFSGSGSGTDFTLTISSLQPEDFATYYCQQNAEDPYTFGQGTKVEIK
Solution: 8.02

Exercise: Do the same for OmaVH15G55H - VL3 (antibody, V domains shown) VH: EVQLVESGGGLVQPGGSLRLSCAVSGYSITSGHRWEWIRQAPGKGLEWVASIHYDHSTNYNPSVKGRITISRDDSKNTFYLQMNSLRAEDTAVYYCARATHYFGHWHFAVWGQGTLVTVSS VL: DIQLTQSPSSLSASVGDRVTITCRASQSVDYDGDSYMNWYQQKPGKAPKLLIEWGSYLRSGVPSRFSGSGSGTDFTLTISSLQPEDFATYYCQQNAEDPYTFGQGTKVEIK please
Solution: 10.12

Exercise: Please give the result for OmaVH15G55HW100b - VL3S31H (antibody, V domains shown) VH: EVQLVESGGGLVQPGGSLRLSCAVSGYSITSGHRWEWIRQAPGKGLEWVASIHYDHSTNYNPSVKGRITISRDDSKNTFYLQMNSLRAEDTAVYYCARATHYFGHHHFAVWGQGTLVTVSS VL: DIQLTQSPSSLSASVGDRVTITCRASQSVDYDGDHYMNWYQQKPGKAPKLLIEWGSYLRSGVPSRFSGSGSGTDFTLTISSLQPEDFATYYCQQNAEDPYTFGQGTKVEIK too.
Solution: 6.35

Exercise: What about CL-2C mAb 37 (antibody, V domains shown, also called VKWT + VH33H100CH) VH: QVQLVQSGAEVMKPGSSVKVSCKASGYTFSWYHLEWVRQAPGHGLEWMGEIDPGTFTTNYNEKFKARVTFTADTSTSTAYMELSSLRSEDTAVYYCARFSHFSGSNHDYFDYWGQGTLVTVSS VL: EIVMTQSPATLSVSPGERATLSCRASQSIGTNIHWYQQKPGQAPRLLIYYASESISGIPARFSGSGSGTEFTLTISSLQSEDFAVYYCQQSWSWPTTFGGGTKVEIK ?
Solution: 9.32

Exercise: Queued: Oma VH15W100b - VL3 (antibody, V domains shown) VH: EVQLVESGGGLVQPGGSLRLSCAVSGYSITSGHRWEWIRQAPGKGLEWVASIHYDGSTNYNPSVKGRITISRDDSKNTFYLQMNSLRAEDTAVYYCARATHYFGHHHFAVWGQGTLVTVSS VL: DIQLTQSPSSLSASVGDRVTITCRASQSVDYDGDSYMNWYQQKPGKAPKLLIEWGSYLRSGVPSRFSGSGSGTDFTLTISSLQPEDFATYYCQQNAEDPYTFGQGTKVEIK
Solution: 8.85

Exercise: Ok, now OmaVH15G55H - VL3D28HS31H (antibody, V domains shown) VH: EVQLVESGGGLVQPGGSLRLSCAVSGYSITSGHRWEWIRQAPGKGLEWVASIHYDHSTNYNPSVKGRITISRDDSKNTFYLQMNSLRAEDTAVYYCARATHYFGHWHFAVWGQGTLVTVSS VL: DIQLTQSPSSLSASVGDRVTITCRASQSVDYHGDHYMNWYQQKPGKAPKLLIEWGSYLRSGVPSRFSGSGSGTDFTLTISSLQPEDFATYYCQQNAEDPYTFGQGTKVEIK
Solution: 8.58

Exercise: And then OmaVH15G55H - VL3D28H (antibody, V domains shown, also called OmaVH15G55H VL3D25H) VH: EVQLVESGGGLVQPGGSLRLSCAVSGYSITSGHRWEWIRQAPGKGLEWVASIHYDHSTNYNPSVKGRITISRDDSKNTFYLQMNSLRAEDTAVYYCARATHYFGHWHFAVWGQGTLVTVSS VL: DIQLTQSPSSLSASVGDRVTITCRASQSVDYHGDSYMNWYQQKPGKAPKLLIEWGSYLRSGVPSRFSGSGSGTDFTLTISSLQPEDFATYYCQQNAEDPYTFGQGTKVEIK , what is it?
Solution: 9.73

Exercise: And then OMA VH15 - VL3S31H (antibody, V domains shown) VH: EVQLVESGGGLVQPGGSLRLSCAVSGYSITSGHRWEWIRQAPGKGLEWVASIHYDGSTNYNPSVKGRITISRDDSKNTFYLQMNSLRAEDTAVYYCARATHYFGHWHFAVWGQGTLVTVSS VL: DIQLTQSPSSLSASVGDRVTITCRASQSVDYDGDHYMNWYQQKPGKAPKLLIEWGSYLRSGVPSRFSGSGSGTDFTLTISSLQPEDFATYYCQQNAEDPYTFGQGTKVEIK , what is it?
Solution: 9.69

The origin of these recorded values is patent US20220177604A1.
